# System: A549 human non-small-cell lung carcinoma
# PROTOCOL DETAILS: In vitro cytotoxicity, Microculture Tetrazolium Assay, A549
# Format: cell-based
# PROTOCOL CONDITIONS: read-out: IC50, the concentration of cytotoxic agent which inhibits the proliferation of the treated cells by 50%
PROPERTY: pIC50
Scale: pIC50 equals -log10([C]), with [C] in mol/L.

Enquiry: // query pIC50 value for entry O=C1NC(=O)c2c1c1c3ccccc3[nH]c1c1cccn21 [Example 1]
Return: 5.70

---

# System: L1210 murine leukaemia
# PROTOCOL DETAILS: In vitro cytotoxicity, Microculture Tetrazolium Assay, L1210
# Type: cell-based
# PROTOCOL CONDITIONS: Mus musculus, exposure 4 doubling periods, or 48 hours, read-out: IC50, the concentration of cytotoxic agent which inhibits the proliferation of the treated cells by 50%
PROPERTY: pIC50
// pIC50 is dimensionless: -log10 of concentration (M)

Enquiry: Return reported pIC50; argument: O=C1NC(=O)c2c1c1c3ccccc3[nH]c1c1cccn21
Return: 5.51
